target: Aminoglycoside 3'-phosphotransferase (Escherichia coli, UniProt P00551); test: Drug metabolism assessed as Escherichia coli APH(3')-Ia-mediated compound modification at 100 uM; type: ADME

>  <COMPOUND_STRUCTURE>
CN[C@@H]1[C@@H](O)[C@@H](O[C@@H]2[C@@H](O)[C@H](O[C@H]3OC(CNC(=O)CN)=CC[C@H]3N)[C@@H](N)C[C@H]2N)OC[C@]1(C)O

>  <Drug metabolism>
metabolite_notdetected

$$$$
>  <COMPOUND_STRUCTURE>
NCC(=O)NC[C@H]1O[C@H](O[C@H]2[C@H](O)[C@@H](O[C@H]3O[C@H](CO)[C@@H](O)[C@H](N)[C@H]3O)[C@H](N)C[C@@H]2N)[C@H](N)C[C@@H]1O

>  <Drug metabolism>
metabolite_notdetected

$$$$
>  <COMPOUND_STRUCTURE>
CCN[C@@H]1C[C@H](N)[C@@H](O[C@H]2OC(CNC(=O)CN)=CC[C@H]2N)[C@H](O)[C@H]1O[C@H]1OC[C@](C)(O)[C@H](NC)[C@H]1O

>  <Drug metabolism>
metabolite_notdetected

$$$$

====

Target: UniProt:P00551
Sequence (P00551 whole entry): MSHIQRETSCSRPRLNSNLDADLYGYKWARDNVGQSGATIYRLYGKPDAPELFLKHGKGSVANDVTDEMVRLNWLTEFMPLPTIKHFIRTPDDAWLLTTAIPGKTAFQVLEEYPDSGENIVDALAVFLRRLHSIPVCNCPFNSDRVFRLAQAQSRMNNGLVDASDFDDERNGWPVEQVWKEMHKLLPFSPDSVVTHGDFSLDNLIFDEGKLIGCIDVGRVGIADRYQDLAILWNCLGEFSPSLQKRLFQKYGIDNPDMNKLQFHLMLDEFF
Test: Drug metabolism assessed as Escherichia coli APH(3')-Ia-mediated compound modification at 100 uM
Format: ADME

>  <MOLECULE>
NCC(=O)NCC[C@H](O)C(=O)N[C@H]1C[C@@H](N)[C@H](O[C@H]2O[C@H](CNC(=O)CN)[C@@H](O)[C@H](O)[C@H]2O)[C@@H](O)[C@@H]1O[C@H]1O[C@H](CO)[C@@H](O)[C@H](N)[C@H]1O (stereo in doubt)

>  <Drug metabolism>
metabolite_notdetected

$$$$
>  <MOLECULE>
NCC[C@H](O)C(=O)NC[C@H]1O[C@H](O[C@H]2[C@H](O)[C@@H](O[C@H]3O[C@H](CO)[C@@H](O)[C@H](N)[C@H]3O)[C@H](N)C[C@@H]2N)[C@H](N)C[C@@H]1O

>  <Drug metabolism>
metabolite_notdetected

$$$$
>  <MOLECULE>
NCC[C@@H](O)C(=O)NC[C@H]1O[C@H](O[C@@H]2[C@@H](O)[C@H](O[C@@H]3O[C@@H](CO)[C@H](O)[C@@H](N)[C@@H]3O)[C@@H](NC(=O)[C@@H](O)CCN)C[C@H]2N)[C@H](O)[C@@H](O)[C@@H]1O (stereo in doubt)

>  <Drug metabolism>
metabolite_notdetected

$$$$
>  <MOLECULE>
N[C@H]1[C@H](O)[C@H](O[C@@H]2[C@@H](O)[C@H](O[C@@H]3O[C@@H](CNC(=O)OCc4ccccc4)[C@H](O)C[C@@H]3N)[C@@H](N)C[C@H]2N)O[C@@H](CO)[C@@H]1O (stereo in doubt)

>  <Drug metabolism>
metabolite_notdetected

$$$$

====

tested on: Listeria monocytogenes; experiment: Antimicrobial activity against Gram-positive Listeria monocytogenes ATCC 19115 after 16 to 24 hrs by micro-dilution method; format: functional
Item-by-item account of MIC

>  <COMPOUND>
NCC[C@H](O)C(=O)NC[C@H]1O[C@H](O[C@H]2[C@H](O)[C@@H](O[C@H]3O[C@H](CO)[C@@H](O)[C@H](N)[C@H]3O)[C@H](N)C[C@@H]2N)[C@H](O)[C@@H](O)[C@@H]1O

>  <TEST_SYSTEM>
Listeria monocytogenes

>  <RESULT>
> 150 µg/mL

$$$$
>  <COMPOUND>
NCC[C@H](O)C(=O)NC[C@H]1O[C@H](O[C@H]2[C@H](O)[C@@H](O[C@H]3O[C@H](CO)[C@@H](O)[C@H](N)[C@H]3O)[C@H](N)C[C@@H]2N)[C@H](N)C[C@@H]1O

>  <TEST_SYSTEM>
Listeria monocytogenes

>  <RESULT>
> 150 µg/mL

$$$$

get_value(item= NCC(=O)NCC[C@H](O)C(=O)N[C@H]1C[C@@H](N)[C@H](O[C@H]2O[C@H](CNC(=O)CN)[C@@H](O)[C@H](O)[C@H]2O)[C@@H](O)[C@@H]1O[C@H]1O[C@H](CO)[C@@H](O)[C@H](N)[C@H]1O (stereo in doubt) , readout=MIC) returns > 150 µg/mL

====

system: Bacillus cereus; assay: Antimicrobial activity against Gram-positive Bacillus cereus ATCC 17788 after 16 to 24 hrs by micro-dilution method; format: functional
ENDPOINT_NAME: MIC

// below: answered molecules
>  <MOLECULE>
NCC(=O)NCC[C@H](O)C(=O)N[C@H]1C[C@@H](N)[C@H](O[C@H]2O[C@H](CNC(=O)CN)[C@@H](O)[C@H](O)[C@H]2O)[C@@H](O)[C@@H]1O[C@H]1O[C@H](CO)[C@@H](O)[C@H](N)[C@H]1O (stereo in doubt)

>  <MIC>
> 150 µg/mL

$$$$
>  <MOLECULE>
N[C@H]1[C@H](O)[C@H](O[C@@H]2[C@@H](O)[C@H](O[C@@H]3O[C@@H](CNC(=O)OCc4ccccc4)[C@H](O)C[C@@H]3N)[C@@H](N)C[C@H]2N)O[C@@H](CO)[C@@H]1O (stereo in doubt)

>  <MIC>
> 150 µg/mL

$$$$

Proceed to the following item.
get_value(item= NCC[C@H](O)C(=O)NC[C@H]1O[C@H](O[C@H]2[C@H](O)[C@@H](O[C@H]3O[C@H](CO)[C@@H](O)[C@H](N)[C@H]3O)[C@H](N)C[C@@H]2N)[C@H](N)C[C@@H]1O , readout=MIC) returns > 150 µg/mL
